- Organism: Rattus norvegicus
- ASSAY_EXPLANATION: Open TG-GATES - Regimen: Daily Repeat
- Type: toxicity, organism-based, Sprague-Dawley
- Set-up: regimen Daily Repeat, gender Male, age 6 weeks
- APPLIED_CONDITIONS: in vivo, po, 300 mg/kg, […], tissue Blood, route gavage, dose level Middle, time 28 day
MEASURED_METRIC: APTT (s)
Only the number, expressed in s, is required.

Below, 3 molecules whose answers are already recorded.
[[record]]
molecule = "CCCCNC(=O)NS(=O)(=O)c1ccc(C)cc1 [TOLBUTAMIDE]"
quantitative_result = 20

[[record]]
molecule = "CC(S)C(=O)NCC(=O)O (centres undefined)"
quantitative_result = 24.6

[[record]]
molecule = "CC(=O)[C@@]1(O)CC[C@H]2[C@@H]3C=C(Cl)C4=CC(=O)CC[C@]4(C)[C@H]3CC[C@@]21C"
quantitative_result = 28


--- query ---
// lookup APTT for `O=C(O)c1ccccc1Nc1ccccc1` 17.6

###

- Species on record: Rattus norvegicus
- ASSAY_EXPLANATION: Open TG-GATES - Regimen: Daily Repeat
- Format: toxicity, organism-based, Sprague-Dawley
- Set-up: regimen Daily Repeat, gender Male, age 6 weeks
- APPLIED_CONDITIONS: in vivo, po, 0 mg/kg, […], tissue Plasma, route gavage, dose level Control, time 28 day
Note to self: values exactly at 70 mg/dL are 1 (yes). So TC at or above 70 mg/dL is 1 (yes), below is 0 (no).

Example results:
[[record]]
compound = "Nc1ccc(Cc2ccc(N)cc2)cc1"
assigned_category = "0 (no)"

[[record]]
compound = "COc1ccc([C@@H]2Sc3ccccc3N(CCN(C)C)C(=O)[C@@H]2OC(C)=O)cc1 [DILTIAZEM]"
assigned_category = "1 (yes)"

[[record]]
compound = "CN(CCOc1ccc(CC2SC(=O)NC2=O)cc1)c1ccccn1.O=C(O)/C=C\\C(=O)O (stereo not given) [ROSIGLITAZONE MALEATE]"
assigned_category = "1 (yes)"

[[record]]
compound = "CC(=O)[C@@]1(O)CC[C@H]2[C@@H]3C=C(Cl)C4=CC(=O)CC[C@]4(C)[C@H]3CC[C@@]21C [CHLORMADINONE]"
assigned_category = "0 (no)"

[[record]]
compound = "CCCCNC(=O)NS(=O)(=O)c1ccc(C)cc1 [TOLBUTAMIDE]"
assigned_category = "1 (yes)"


Turning now to a further record.
hey, is TC for this one >= 70 mg/dL? `CCN(CC)C(=S)SSC(=S)N(CC)CC` 1 (yes)

###

- Organism: Rattus norvegicus
- ASSAY_EXPLANATION: Open TG-GATES - Regimen: Daily Repeat
- Assay type: toxicity, organism-based, Sprague-Dawley
- Design: regimen Daily Repeat, gender Male, age 6 weeks
- APPLIED_CONDITIONS: in vivo, po, 100 mg/kg, […], tissue Kidney, route gavage, dose level Low, time 14 day
KIDNEY_R reference
Only the number, expressed in g, is required.

Below, 3 compounds whose answers are already recorded.
[[record]]
compound = "O=C(O)c1ccccc1Nc1ccccc1"
measured_metric = "KIDNEY_R"
output_unit = "g"
quantitative_result = 1.2

[[record]]
compound = "CC(S)C(=O)NCC(=O)O (centres undefined)"
measured_metric = "KIDNEY_R"
output_unit = "g"
quantitative_result = 1.3

[[record]]
compound = "CC(=O)[C@@]1(O)CC[C@H]2[C@@H]3C=C(Cl)C4=CC(=O)CC[C@]4(C)[C@H]3CC[C@@]21C"
measured_metric = "KIDNEY_R"
output_unit = "g"
quantitative_result = 1.1


--- query ---
// lookup KIDNEY_R for CCCCNC(=O)NS(=O)(=O)c1ccc(C)cc1 [TOLBUTAMIDE] 1.2

These measurements were taken from ChEMBL document CHEMBL3885861.
